Hey, just so you know, these numbers are from paper PMC6218153.

- assay-comment: PK study in plasma and CSF after single IV, SC or IN dose
- Format: in vivo, rat
- condition-set: rat, in vivo, iv, 11 mg/kg, t1/2, rat, IV 11 mg/kg, plasma, terminal
Where no end group is shown, it is not given here.
measured-metric: half-life (min)
Give just the numeric value; min need not be written.

// query Request the reported half-life associated with DEEEDEEL [P8, DEEEDEEL]
// result 22

* * *

- assay-comment: PK study in plasma and CSF after single IV, SC or IN dose
- Assay type: in vivo, rat
- condition-set: rat, in vivo, inhaled or intranasal, 5.5 mg/kg, AUC, IN 5.5 mg/kg, plasma
Where no end group is shown, it is not given here.
measured-metric: AUC (ng·h/mL)
Output spec: scalar in ng·h/mL, unitless text.

// query Reported AUC, sequence DEEEDEEL [P8, DEEEDEEL] : ____
// result 146

* * *

- assay-comment: PK study in plasma and CSF after single IV, SC or IN dose
- Assay type: in vivo, rat
- condition-set: rat, in vivo, iv, 11 mg/kg
Where no end group is shown, it is not given here.
measured-metric: Vd (L/kg)
Give the quantity in L/kg, number only.

// query Could you tell me which Vd is on file for DEEEDEEL [P8, DEEEDEEL] ?
// result 0.546

* * *

- assay-comment: PK study in plasma and CSF after single IV, SC or IN dose
- Assay type: in vivo, rat
- condition-set: rat, in vivo, sc, 11 mg/kg, AUC, SC 11 mg/kg, CSF
Where no end group is shown, it is not given here.
measured-metric: AUC (ng·h/mL)
I only need the number, in ng·h/mL, no unit after it.

// query Entry DEEEDEEL [P8, DEEEDEEL] has what AUC?
// result 39.7
